target: T1, IgG1-Fc (human, UniProt P01857 104-330 = IgG part); assay: ELISA
T1 construct: domain: Fc
Measured property: binding result

[
  {
    "Binder": "clec-4d (receptor, UniProt Q8WXI8 39-215, looked up) CLVTHHNFSRCKRGTGVHKLEHHAKLKCIKEKSELKSAEGSTWNCCPIDWRAFQSNCYFPLTDNKTWAESERNCSGMGAHLMTISTEAEQNFIIQFLDRRLSYFLGLRDENAKGQWRWVDQTPFNPRRVFWHKNEPDNSQGENCVVLVYNQDKWAWNDVPCNFEASRICKIPGTTLN",
    "Readout value": "no binding"
  },
  {
    "Binder": "dectin-2 (receptor, UniProt Q6EIG7 46-209, looked up, also called dec-2) TYGETGKRLSELHSYHSSLTCFSEGTKVPAWGCCPASWKSFGSSCYFISSEEKVWSKSEQNCVEMGAHLVVFNTEAEQNFIVQQLNESFSYFLGLSDPQGNNNWQWIDKTPYEKNVRFWHLGEPNHSAEQCASIVFWKPTGWGWNDVICETRRNSICEMNKIYL",
    "Readout value": "no binding"
  },
  {
    "Binder": "Siglec-3 (receptor, UniProt P20138 18-259, looked up) DPNFWLQVQESVTVQEGLCVLVPCTFFHPIPYYDKNSPVHGYWFREGAIISRDSPVATNKLDQEVQEETQGRFRLLGDPSRNNCSLSIVDARRRDNGSYFFRMERGSTKYSYKSPQLSVHVTDLTHRPKILIPGTLEPGHSKNLTCSVSWACEQGTPPIFSWLSAAPTSLGPRTTHSSVLIITPRPQDHGTNLTCQVKFAGAGVTTERTIQLNVTYVPQNPTTGIFPGDGSGKQETRAGVVH",
    "Readout value": "no binding"
  }
]

Cited source for all entries: patent US20210024615A1
